Just for reference, ChEMBL document CHEMBL3351311 is where these values come from.

Test: AUC (0 to infinity) in Sprague-Dawley rat at 10 mg/kg, sc
Type: ADME, organism-based
Parameters: time infinity, dose 10 mg/kg, route subcutaneous
Settings: plasma
assayMetric: AUC(0-inf) (ng·h/mL)
Report the value in ng·h/mL with no unit label.

So, CCCCOc1cncc(-c2nnc3c(C)nc4ccc(CN5CCOCC5)cc4n23)c1 ? Its AUC(0-inf) was 1670

---

Test: Plasma concentration in rat at 10 mg/kg, po after 30 mins
Assay type: ADME, organism-based
Design: dose 10 mg/kg, route oral
assayMetric: concentration at 0.5 h

So, COc1ccc(Cc2nn3c([C@@H](CCCc4ccccc4)[C@@H](C)O)nc(C)c3c(=O)[nH]2)cc1OC ? Its concentration at 0.5 h was 72.9 ng/mL

---

Test system: Rattus norvegicus
Test: In-vivo occupancy at PDE2 in sc dosed Wistar rat brain using [3H]labeled compound in presence of 2.5 mg/kg, sc PDE10 inhibitor MP10
Type: functional, organism-based
Design: dose 2.5 mg/kg, route subcutaneous
assayMetric: EC50
Record the result as number plus unit.

So, CCCCOc1cncc(-c2nnc3c(C)nc4ccc(CN5CCOCC5)cc4n23)c1 ? Its EC50 was 21 nM

---

Assay: Volume of distribution at steady state in Sprague-Dawley rat at 2.5 mg/kg, iv
Format: ADME, organism-based
Design: dose 2.5 mg/kg, route intravenous
Conditions: in vivo, read-out: Vdss
assayMetric: Vd (L/kg)
Report the value in L/kg with no unit label.

So, CCCCOc1cncc(-c2nnc3c(C)nc4ccc(CN5CCOCC5)cc4n23)c1 ? Its Vd was 2.7

---

Experiment: Cmax in Sprague-Dawley rat at 10 mg/kg, sc
Format: ADME, organism-based
Design: dose 10 mg/kg, route subcutaneous
Settings: in vivo
assayMetric: Cmax (ng/mL)
Report the value in ng/mL with no unit label.

So, CCCCOc1cncc(-c2nnc3c(C)nc4ccc(CN5CCOCC5)cc4n23)c1 ? Its Cmax was 658

---

Experiment: Formulatability in water at pH 3.6
Format: physicochemical
Details: read-out: Activity
assayMetric: solubility
Record the result as number plus unit.

So, CCCCOc1cncc(-c2nnc3c(C)nc4ccc(CN5CCOCC5)cc4n23)c1 ? Its solubility was 4000 µg/mL

---

Assay: Ratio of drug level in brain to plasma of Sprague-Dawley rat at 10 mg/kg, sc after 0.5 hrs
Format: ADME, organism-based
Parameters: dose 10 mg/kg, route subcutaneous
Conditions: read-out: BPR
assayMetric: Kp at 0.5 h
Lab note: write the figure by itself, no unit.

So, CCCCOc1cncc(-c2nnc3c(C)nc4ccc(CN5CCOCC5)cc4n23)c1 ? Its Kp at 0.5 h was 1.4

---

Test: Formulatability in 10% beta-HP-CD at pH 3.6
Assay type: physicochemical
Settings: read-out: Activity
assayMetric: solubility (mg/mL)
Report the value in mg/mL with no unit label.

So, CCCCOc1cncc(-c2nnc3c(C)nc4ccc(CN5CCOCC5)cc4n23)c1 ? Its solubility was 15

---

Experiment: Formulatability in 20% beta-HP-CD at pH 7.0
Assay type: physicochemical
Conditions: read-out: Activity
assayMetric: solubility (mg/mL)
Report the value in mg/mL with no unit label.

So, CCCCOc1cncc(-c2nnc3c(C)nc4ccc(CN5CCOCC5)cc4n23)c1 ? Its solubility was 16

---

Experiment: Half life in Sprague-Dawley rat at 2.5 mg/kg, iv
Format: ADME, organism-based
Parameters: dose 2.5 mg/kg, route intravenous
Conditions: in vivo
assayMetric: half-life

So, CCCCOc1cncc(-c2nnc3c(C)nc4ccc(CN5CCOCC5)cc4n23)c1 ? Its half-life was 18.6 min
